Quick reference for inhibition at 10 µM among some compounds
Molecular target: human DGAT2 (Homo sapiens)
Construct: made in house; host or cells: sf9 insect cells
Test: DGAT enzyme inhibition test, hDGAT2 enzyme from sf9 insect cells (DGAT2 selectivity)
Assay type: biochemical
Conditions: 10 μM; enzyme from sf9 cells overexpressing hDGAT2; read-out: hDGAT-2 (sf9) inhibition rate(%)at 10 μM

Recorded inhibition at 10 µM, per entry:
CC(C)N(NC(=O)c1cccc(Cl)c1)C(=O)/C=C/c1cn(C(=O)OC(C)(C)C)c2ccccc12; 28.7%
CC(C)N(NC(=O)c1ccccc1)C(=O)/C=C/c1c[nH]c2ccccc12; < 0%
CC(C)N(NC(=O)c1ccccc1)C(=O)CCc1c[nH]c2ccccc12; < 0%
CC(C)N(NC(=O)c1cccc(F)c1)C(=O)/C=C/c1cn(C(=O)OC(C)(C)C)c2ccccc12; < 0%
CC(C)N(NC(=O)c1ccccc1)C(=O)/C=C/c1cn(C(=O)OC(C)(C)C)c2ccccc12; 7.5%
CC(C)N(NC(=O)c1cccc(O)c1)C(=O)/C=C/c1cn(C(=O)OC(C)(C)C)c2ccccc12; < 0%

[ask] Give a short answer stating reported inhibition at 10 µM for `CC(C)N(NC(=O)c1cccc(OCC(=O)O)c1)C(=O)/C=C/c1cn(C(=O)OC(C)(C)C)c2ccccc12` .
[reply] < 0%

[ask] Give inhibition at 10 µM for the following compound: `CC(C)N(NC(=O)c1ccc(Br)cc1)C(=O)/C=C/c1cn(C(=O)OC(C)(C)C)c2ccccc12`
[reply] 2.3%

---

Biological target: human DGAT2 (Homo sapiens, UniProt Q96PD7)
Construct: made in house; host or cells: sf9 insect cells
Sequence (Q96PD7 whole entry): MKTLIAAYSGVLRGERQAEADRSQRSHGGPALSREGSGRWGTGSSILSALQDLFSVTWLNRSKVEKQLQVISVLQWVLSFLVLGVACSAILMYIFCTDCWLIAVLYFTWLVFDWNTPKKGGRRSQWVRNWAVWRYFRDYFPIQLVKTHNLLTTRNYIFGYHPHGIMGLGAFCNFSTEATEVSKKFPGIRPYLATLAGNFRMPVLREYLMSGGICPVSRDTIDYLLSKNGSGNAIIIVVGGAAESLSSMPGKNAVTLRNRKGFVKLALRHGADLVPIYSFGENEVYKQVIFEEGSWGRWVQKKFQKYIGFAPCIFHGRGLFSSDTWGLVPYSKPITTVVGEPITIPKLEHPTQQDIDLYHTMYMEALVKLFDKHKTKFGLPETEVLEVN
Experiment: DGAT enzyme inhibition test, hDGAT2 enzyme from sf9 insect cells (DGAT2 selectivity)
Type: biochemical
Details: concentration of 10 μM; read-out: hDGAT2 inhibition
quantity.kind: inhibition at 10 µM

CC(C)N(NC(=O)c1ccccc1)C(=O)/C=C/c1cn(C(=O)OC(C)(C)C)c2ccccc12; < 11%
CC(C)N(NC(=O)c1ccc(O)cc1)C(=O)/C=C/c1cn(C(=O)OC(C)(C)C)c2ccccc12; < 11%
CC(C)N(NC(=O)c1ccccc1)C(=O)/C=C/c1cn(C2CC2)c2ccccc12; < 11%
CC(C)N(NC(=O)c1ccccc1)C(=O)/C=C/c1cn(C(=O)CC(C)(C)C)c2ccccc12; < 11%
CC(C)N(NC(=O)c1cccc(Br)c1)C(=O)/C=C/c1cn(C(=O)OC(C)(C)C)c2ccccc12; < 11%

[ask] Answer briefly: inhibition at 10 µM recorded on human DGAT2 (Homo sapiens, UniProt Q96PD7) for `CC(C)N(NC(=O)c1ccc(Cl)cc1)C(=O)/C=C/c1cn(C(=O)OC(C)(C)C)c2ccccc12`
[reply] < 11%

[ask] Fill in: inhibition at 10 µM on human DGAT2 (Homo sapiens, UniProt Q96PD7), entry `CC(C)N(NC(=O)c1ccccc1)C(=O)/C=C/c1cn(C(=O)C(C)(C)C)c2ccccc12`
[reply] < 11%

[ask] Fill: inhibition at 10 µM (human DGAT2 (Homo sapiens, UniProt Q96PD7)) for this compound `CC(C)N(NC(=O)c1ccncc1)C(=O)/C=C/c1cn(C(=O)OC(C)(C)C)c2ccccc12`
[reply] < 11%

[ask] Quote inhibition at 10 µM with test system human DGAT2 (Homo sapiens, UniProt Q96PD7) for `CC(C)N(NC(=O)c1ccccc1)C(=O)/C=C/c1cn(Cc2ccccc2)c2ccccc12`
[reply] < 11%

[ask] Determine reported inhibition at 10 µM for `CC(C)N(NC(=O)c1ccc(Br)cc1)C(=O)/C=C/c1cn(C(=O)OC(C)(C)C)c2ccccc12` ; test system: human DGAT2 (Homo sapiens, UniProt Q96PD7).
[reply] < 11%

[ask] Enter recorded inhibition at 10 µM with human DGAT2 (Homo sapiens, UniProt Q96PD7) for `COCCOc1cccc(C(=O)NN(C(=O)/C=C/c2cn(C(=O)OC(C)(C)C)c3ccccc23)C(C)C)c1` here.
[reply] < 11%
